The measurements presented in this section are drawn from patent US6579881B2.

A set of compounds tested on UniProt P19327, with measured log10 Ki:
Note: values are log10 of Ki expressed in nM.

Answered examples (3):
| compound | quantity | recorded_result |
| --- | --- | --- |
| CCNc1ccc2c(c1)N(C1CCN(CCc3ccc(F)cc3)CC1)CC2 | log10 Ki | 0.51 |
| CCCS(=O)(=O)NCc1ccc2ccn(C3CCN(CCc4ccc(F)cc4)CC3)c2c1 | log10 Ki | -1.00 |
| COc1cncc(CCN2CCC(N3CCc4ccccc43)CC2)c1 | log10 Ki | 1.33 |

Req: What measured log10 Ki is associated with OC[C@@H]1CN(CCc2ccc(F)cc2)CC[C@@H]1N1CCc2ccccc21 (relative stereo) on UniProt P19327?
Resp: 1.65

Req: What measured log10 Ki is associated with O=C(CF)NCc1ccc2ccn(C3CCN(CCc4ccccc4F)CC3)c2c1 on UniProt P19327?
Resp: 0.14

Req: What measured log10 Ki is associated with O=C(CCCO)NCc1ccc2ccn(C3CCN(CCc4ccc(F)cc4)CC3)c2c1 on UniProt P19327?
Resp: 0.31

Req: What measured log10 Ki is associated with CC(=O)NCc1ccc2c(c1)N(C1CCN(CCc3ccc(F)cc3F)CC1)CC2 on UniProt P19327?
Resp: 0.49

Req: What measured log10 Ki is associated with CC(=O)NCc1ccc2ccn(C3CCN(CCc4ccc(F)cc4)CC3)c2c1 on UniProt P19327?
Resp: -0.36
